tested on: PDPK1; conditions: concentration: 1 μM,replicates: in singlicate; n = 1;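 note: KINOMEscan kinase panel screen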
REPORTED_ENDPOINT: %Inh
Include the unit right after the number.

# input Please report the recorded %Inh for `CCn1c(-c2nonc2N)nc2cncc(Br)c21` .
# output 6%

# input Return reported %Inh; argument: `Cn1cc(-c2cccc3c(N)c(C(N)=O)nnc23)cn1`
# output 2%

# input Dear colleague, I am looking for the recorded %Inh of the following molecule: `OCCn1cc(-c2cnc3nnn(Cc4ccc5ncccc5c4)c3n2)cn1`
# output 0%

# input For the molecule shown here, `Cc1ccc(C(=O)Nc2ccc(Oc3ccc4nc(NC(=O)C5CC5)cn4c3)c(F)c2)c(=O)n1-c1ccccc1` , give the reported %Inh.
# output 0%

# input Would you kindly share the measured %Inh for `O=C(NOCC1CC1)c1cc(Br)c(F)c(F)c1Nc1ccc(I)cc1Cl` ?
# output 9%

# input Tell me the measured %Inh of `Cc1ccc(CC(=O)N2CCc3cc(-c4cn(C)c5ncnc(N)c45)ccc32)cc1` , please.
# output 57%

# input I am curious: what %Inh value has been reported for `CC(=O)Nc1ccc(-c2cc3ncnc(SCC(=O)O)c3s2)cc1` ?
# output 0%

# input // returns reported %Inh for input `C[C@@H]1CNc2c(sc3ccc4nc(-c5ccncc5)ccc4c23)C(=O)N1`
# output 0%

# input Fill in: %Inh of CS(=O)c1ccc(-c2coc3ccc(-c4n[nH]c(=O)o4)cc23)cc1 (centres unmarked) is ___
# output 0%

# input Would you mind telling me what %Inh value was observed for `O=c1[nH]cc(-c2ccc(O)cc2)c2sc(-c3ccncc3)cc12` ?
# output 0%

# input What value of measured %Inh is listed for `Nc1nccc(-c2ccc3c(N)n[nH]c3c2)n1` ?
# output 34%

# input If you can, please state the reported %Inh value of `C[C@@H](Oc1cc(-n2cnc3cc(-c4cnn(C)c4)ccc32)sc1C(N)=O)c1ccccc1Cl` .
# output 75%

# input # %Inh lookup, item COc1cc(Nc2nccc(N3CCC(NC(=O)c4cccc(C#N)c4)C3)n2)cc(OC)c1OC (centres unmarked)
# output 0%

# input Would you kindly share the measured %Inh for `Cn1ccc2ncnc(Oc3ccc(NC(=O)Nc4cccc(C(F)(F)F)c4)c(Cl)c3)c21` ?
# output 0%

# input Fill in the blank: the reported %Inh of `NC(=O)c1ccc(-c2cc3ncnc(SCC(=O)O)c3s2)cc1` is ____.
# output 0%

# input Can you look up the measured %Inh of `C[C@@H]1CNc2c(sc3ccc4nc(-c5ccc(O)cc5)ccc4c23)C(=O)N1` for me?
# output 0%

# input Look up %Inh for this molecule: `CN(c1ccccc1CNc1nc(Nc2ccc3c(c2)CC(=O)N3)ncc1C(F)(F)F)S(C)(=O)=O`
# output 34%

# input Could you share which %Inh value was measured for `Cc1cccc(-c2nc(Nc3ccncc3)c3sccc3n2)n1` ?
# output 7%

# input Reported %Inh for `O=C(Nc1ccc(Oc2ccc3nc(NC(=O)C4CC4)cn3n2)c(F)c1)c1cccn(-c2ccccc2)c1=O` : what is it?
# output 0%

# input Requested read-out: %Inh. Entry: `CS(=O)(=O)c1cccc(CNc2nc(Nc3ccc4c(c3)[C@@H]3C[C@@H]4CNC3=O)ncc2C(F)(F)F)c1`
# output 0%

---

test system: p38-gamma; construct: gene MAPK12; conditions: concentration: 1 μM,replicates: in singlicate; n = 1
Answer each item with its documented %Inh.
Numeric answer only, unit % assumed.

# input Query %Inh on p38-gamma for `CN1CCN(CCCNc2nccc(-c3c(-c4ccc(F)cc4)nn4cc(C(N)=O)ccc34)n2)CC1`
# output 13

# input Write down the reported %Inh of COc1ccc(Nc2nccc(N3CCC(NC(=O)c4cccc(C#N)c4)C3)n2)cc1 (stereo not drawn) , test system: p38-gamma.
# output 0

# input Query %Inh on p38-gamma for `CSc1nccc(-c2c(-c3ccc(F)cc3)ncn2CCCN2CCOCC2)n1.Cl`
# output 2

# input Fill in the recorded %Inh for this compound, with p38-gamma as test system: `Cn1ccc2ncnc(Oc3ccc(NC(=O)Nc4cncc(C(F)(F)F)c4)c(Cl)c3)c21`
# output 0

# input Requested read-out %Inh, target or system p38-gamma, entry `C[C@@H](Oc1cc(-n2cnc3ccc(-c4ccncc4)cc32)sc1C(N)=O)c1ccccc1Cl`
# output 0

# input Query the reported %Inh for p38-gamma; item: `O=C1NCCc2[nH]c(-c3ccncc3)cc21`
# output 26

# input Any idea what %Inh came out for `O=C(NCC1CC1)c1ccc(-c2cc(C(=O)NC3CC3)ccc2F)cc1` on p38-gamma?
# output 29

# input For p38-gamma, provide %Inh of `CCOC(=O)N1CCC(n2cnc(-c3ccc(F)cc3)c2-c2ccnc(N)n2)CC1` please.
# output 23

# input // map Cc1nnc(-c2ccc3occ(-c4ccc(S(C)=O)cc4)c3n2)o1 (stereo not drawn) to recorded %Inh (system: p38-gamma)
# output 0

---

system: PRKG2; details: concentration: 1 μM,replicates: in singlicate; n = 1
Kindly supply the reported %Inh values for the records listed here.
Supply the numeric figure in %, leaving out any unit text.

# input Suppose we examine the compound `CN(c1ccc2c(c1)nc(NCc1ccc(F)cc1)n2C)c1ccnc(Nc2ccc(CS(C)(=O)=O)cc2)n1.Cl` ; what %Inh value has been reported?
# output 0

# input Entry `Cc1ccn2nc(-c3ccc(F)cc3)c(-c3ccncc3)c2c1.Cl` has what %Inh?
# output 19

# input Form field: reported %Inh of `FC(F)(F)c1cc(Br)cc(Nc2nccc(-c3cnn4ncccc34)n2)c1`
# output 0

# input Reported %Inh for `NC(=O)c1ccc(-c2cc3ncnc(SCC(=O)O)c3s2)cc1` : what is it?
# output 0

# input Given the compound `Cn1ccc2ncnc(Oc3ccc(NC(=O)Nc4cccc(C(F)(F)F)c4)c(Cl)c3)c21` , what is its reported %Inh?
# output 7

# input Could you tell me which %Inh is on file for `O=C(NOCC1CC1)c1cc(Br)c(F)c(F)c1Nc1ccc(I)cc1Cl` ?
# output 0

# input %Inh lookup needed for CS(=O)c1ccc(-c2coc3ccc(-c4n[nH]c(=O)o4)cc23)cc1 (stereo not drawn) , thanks.
# output 0

# input Quick one: %Inh for `CCn1c(-c2nonc2N)nc2cncc(Br)c21` ?
# output 92.1

# input I have this compound here, `OCCn1cc(-c2cnc3nnn(Cc4ccc5ncccc5c4)c3n2)cn1` , and I need its recorded %Inh.
# output 0

# input Could you share which %Inh value was measured for `O=C(Nc1cccc(Oc2ccc3nccn3n2)c1)Nc1cccc(C(F)(F)F)c1` ?
# output 0

# input Look up %Inh for this compound: COC(=O)c1cccc(NC(=O)NC2CCN(c3ccnc(Nc4cc(OC)c(OC)c(OC)c4)n3)C2)c1 (stereo not drawn)
# output 7

# input Given the entry `O=c1[nH]cc(-c2ccc(O)cc2)c2sc(-c3ccncc3)cc12` , report its measured %Inh.
# output 14

# input What does the record list as %Inh for `CCCC(=O)Nc1n[nH]c2ncccc12` ?
# output 0

# input Fill in the blank: the reported %Inh of `C[C@@H]1CCN(C(=O)N2CCCC2)C[C@@H]1N(C)c1ncnc2[nH]ccc12` is ____.
# output 13

# input Entry under review: `O=C(Nc1n[nH]c2cc(-c3ccco3)ccc12)C1CC1` . Reported %Inh?
# output 0

# input Value lookup for %Inh; key = Cc1nnc(-c2ccc3occ(-c4ccc(S(C)=O)cc4)c3n2)o1 (stereo not drawn)
# output 0

# input Look up %Inh: `Cc1cccc(-c2nc(Nc3ccncc3)c3sccc3n2)n1`
# output 14

# input Consider the compound `Cn1ccc2ncnc(Oc3ccc(NC(=O)Nc4cc(C(C)(C)C)on4)c(Cl)c3)c21` and give its measured %Inh.
# output 33

# input For `COc1cccc(C2=C(Nc3cccc(Cl)c3)C(=O)NC2=O)c1` , what is its reported %Inh?
# output 11

# input Look up %Inh: `COc1cc2c(Nc3ccc(NC(=O)c4ccccc4)cc3)ncnc2cc1OCCCN1CCOCC1`
# output 21

# input Find the recorded %Inh belonging to `COc1cc2nccc(Nc3ccc(Oc4ccccc4)cc3)c2cc1OC.Cl` and report it.
# output 0

# input So what does the record say about %Inh for `Cn1ccc2ncnc(Oc3ccc(NC(=O)Nc4cnn(C(C)(C)C)c4)c(Cl)c3)c21` ?
# output 0

# input Quick one: %Inh for `O=C(Nc1ccc(Oc2ccc3nc(NC(=O)C4CC4)cn3n2)c(F)c1)c1cccn(-c2ccccc2)c1=O` ?
# output 1

# input Which %Inh is reported for this compound? `C[C@@H](Oc1cc(-n2cnc3cc(-c4cnn(C)c4)ccc32)sc1C(N)=O)c1ccccc1Cl`
# output 2

# input Fill in the blank: the reported %Inh of `C[C@@H](Oc1cc(-n2cnc3ccc(-c4ccncc4)cc32)sc1C(N)=O)c1ccccc1Cl` is ____.
# output 0

# input Bench note: what %Inh did `O=C1NCCc2[nH]c(-c3ccncc3)cc21` show?
# output 99.1

# input Name the reported %Inh value associated with the compound `CS(=O)(=O)c1cccc(CNc2nc(Nc3ccc4c(c3)[C@@H]3C[C@@H]4CNC3=O)ncc2C(F)(F)F)c1`
# output 0

# input What does the data say about its %Inh? Entry: `Cn1ccc2ncnc(Oc3ccc(NC(=O)Nc4cncc(C(F)(F)F)c4)c(Cl)c3)c21`
# output 0

# input Look at this compound and give its reported %Inh. `CS(=O)(=O)Nc1ccc(-c2ccnc3[nH]ccc23)cc1`
# output 77

# input For `Cn1ccc2ncnc(Oc3ccc(NC(=O)Nc4ccnc(C(F)(F)F)c4)c(Cl)c3)c21` , what is its reported %Inh?
# output 9

# input // lookup %Inh for `CC(=O)c1c(-c2ccncc2)[nH]c(-c2ccncc2)c1C`
# output 73

# input For the compound shown here, CC(C(=O)NC1CCN(c2ccnc(Nc3ccc(F)cc3)n2)C1)c1ccc(Cl)cc1 (stereo not drawn) , give the reported %Inh.
# output 0

# input %Inh lookup needed for `CN1CCN(CCNc2nc3cc(Oc4ccc(NC(=O)Nc5cc(C(F)(F)F)ccc5F)cc4)ccc3[nH]2)CC1.Cl.Cl` , thanks.
# output 0

# input I'd like to know its %Inh. The compound in question is `CNC(=O)c1ccccc1Nc1nc(Nc2cccc(CS(C)(=O)=O)c2)ncc1C.O=CO`
# output 8

# input Name the reported %Inh value associated with the compound `COC(=O)Nc1nc2cc(Oc3ccc(NC(=O)Nc4cc(C(F)(F)F)ccc4Cl)cc3)ccc2[nH]1.Cl`
# output 0

# input Need %Inh, item `O=C(Nc1cccc(C(F)(F)F)c1)c1cccc(Oc2ccc3nccn3n2)c1`
# output 1
